This collection of values is drawn from patent US9198433B2.

- System: Alternaria solani
- METHOD DESCRIPTION: Test H: tomato early blight, preventive spray on tomato seedlings, disease rating
- Type: in vivo
- RUN CONDITIONS: 40 ppm (*)
Marks after values point to notes of the source that are not given here.
QUANTITY: Percentage Disease Control, Test H

Here is how some molecules turned out for Percentage Disease Control, Test H.
COC(=O)NCc1cc(-c2ccn(-c3cc(C(F)(F)F)cc(C(F)(F)F)c3)n2)ccc1Cl | 0* %
COC(=O)NCc1cc(-c2ccn(Cc3cccc(C)c3)n2)ccc1Cl | 84* %
COC(=O)NCc1cc(-c2ccn(Cc3ccccc3OC(F)(F)F)n2)ccc1Cl | 0* %
COC(=O)NCc1cc(-c2ccn(CCOc3ccccc3)n2)ccc1Cl | 87* %

Then this molecule:
[Q] Look up Percentage Disease Control, Test H of `COC(=O)NCc1cc(-c2ccn(-c3ccc(C)cc3)n2)ccc1Cl` and report it.
[A] 100* %
